tested on: mature stage V P. falciparum gametocytes; assay: Gametocytocidal activity; format: cell-based; conditions: Plasmodium falciparum, NF54, 48 h, read-out: Pf stage V gametocytes IC50
PROPERTY_NAME: IC50

Specify measured IC50 for `CN(C)c1ccc(C(=O)N(Cc2ccc(C(=O)NO)cc2)C(C)(C)C(=O)NC2CCCCC2)cc1` .
16.3 µM

Look up and state reported IC50 for CN(C)c1ccc(C(=O)N(Cc2ccc(C(=O)NO)cc2)C(C(=O)NC2CCCCC2)c2ccccc2)cc1 (racemic)
14.8 µM

Dear colleague, please send me the reported IC50 for `CNC(=O)CN(Cc1ccc(C(=O)NO)cc1)C(=O)c1cc(C)cc(C)c1` when you can.
16.8 µM

Dear colleague, please send me the reported IC50 for `COc1ccc(CNC(=O)CN(Cc2ccc(C(=O)NO)cc2)C(=O)c2cc(C)cc(C)c2)cc1` when you can.
10.2 µM

Give IC50 for `Cc1cc(C)cc(CNC(=O)CN(Cc2ccc(C(=O)NO)cc2)C(=O)c2cc(C)cc(C)c2)c1`
5.27 µM

Values compiled from paper PMC6502651.
